The reported numbers originate from the supplement of paper PMC12042874.

experiment: amyloid nucleation score (Sup35N fusion, yeast selection) (log enrichment); library NNK1; higher = more nucleation; inactive = no reads after selection;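 further: zero at mode of non-aggregating sequences after 7 days selection at 30°C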
For each of the substances below, state its amyloid nucleation score.
One number for each entry.

Some solved cases for reference:
DIFRIYMWVHCMDRHSDGTV | 2.29
CDWNLSNGGYGDHARCSGSA | 5.13
CCVNDFPTISPLSPLKRFDR | -0.302
MERPGNCVGWRRCPLHVTNG | -0.292
KEKWRMQICAPGKS | -1.24
SYMFWIPLATQWKRVLNRVW | -0.479
VSSFLLRSFRKCRPLCYIVR | 3.89
LHLVTYFVTYVLYSFSISAS | -0.268
LGICLLCTDIWDRVGNLCSL | -0.041
FGLHCINLNWVEKWFDIDGP | -0.245

# return amyloid nucleation score for each item in the list
1. LGGFYTRRCVCSLGTRQERE
2. WMFMNLVGVMFDGHGPGGSA
3. LFSWFWNEI
4. RVQFRKSTVSISYQNGFCTQ
5. TMSSSNQSQMFPSVIYSEGH

Response line:
-0.072
1.66
0.658
2.73
-0.209

# return amyloid nucleation score for each item in the list
1. LMLERFRLLYNEDFGGKVMF
2. RSRPVPIVKDRSISNSRESR
3. FFRDSHYIQRDKSQPSRGSN
4. LWLRSLIVYYNSFVDMGGCA
5. FSRCPHQALSTECFPFFGS
6. FLNTNEKIKMQPIFPFFLLL

Response line:
0.448
-0.999
-0.269
0.549
-0.122
-0.495

###

assay: amyloid nucleation score (Sup35N fusion, yeast selection) (log enrichment); library NNK2; higher = more nucleation; inactive = no reads after selection
RECORDED ENDPOINT: amyloid nucleation score

EEMMSRYSLTVKML | 0.391
VIAGDTQGMSRGWFLGVLPW | inactive
LYRSSLRFMPTIICETVWMY | inactive
YRRGRLSMRSVWTKGCKERM | inactive

Field: next sequence
Prompt line: Fill in: amyloid nucleation score of YINHSHVRGIVRIYNVQV is ___
Response line: inactive

###

assay: amyloid nucleation score (Sup35N fusion, yeast selection) (log enrichment); library NNK2; higher = more nucleation; inactive = no reads after selection
RECORDED ENDPOINT: amyloid nucleation score
One number for each entry.

Some solved cases for reference:
FHVCWERSMLIRV | -0.559
YPNRFINTCFVRCNISLNNY | 8.48
SWWTMWLLTRLRNSSSWGMT | 0.011

# return amyloid nucleation score for each item in the list
1. WNMYNRIWFLGHKLLWGSPT
2. MSMFVGTYNSFFRQSLFSAF

Response line:
1: -0.414; 2: -1.7

###

assay: amyloid nucleation score (Sup35N fusion, yeast selection) (log enrichment); library NNK2; higher = more nucleation; inactive = no reads after selection
For each of the substances below, state its amyloid nucleation score.
Give bare numbers.

SRSVFIRSLAVITVIWILT | 1.34
RAWSIAWYAYPFLIREFECN | 3.35
CNRYWGRPHGYFFSSSMCMV | -1.28
SLAIAVNAMIHNIPADIWMH | 6.27
KYSVMLALLEPIRWTWLIQF | 0.323
FFVLRHA | -0.513

# return amyloid nucleation score for each item in the list
1. VISKYDWFK
2. HCCKSVRLESIRMRCGACYL

Response line:
[-0.255, 0.007]
